Reference source: ChEMBL document CHEMBL6071182

experiment: Half life in human liver microsomes
Format: ADME, Microsome
quantityName: half-life
Hey, just the number and the unit after it is fine.

query: Entry under review: `Cc1cc(NC(=O)c2ccc(NS(=O)(=O)CCO)cc2C2=CCC3(CC2)CC3)nc(N2CCC(F)(F)CC2)c1` . Reported half-life?
result: 22.8 min

###

experiment: Half life in dog liver microsomes
Type: ADME, Canis lupus familiaris, Microsome
quantityName: half-life (h)
Output spec: scalar in h, unitless text.

query: Looking for the measured half-life of `Cc1cc(NC(=O)c2ccc(NS(=O)(=O)CCO)cc2C2=CCC3(CC2)CC3)nc(N2CCC(F)(F)CC2)c1` , can you help?
result: 2.21

###

List of pIC50 values.
Test system: NCI-N87
experiment: Antiproliferative activity against human NCI-N87 cells assessed as chemiluminescence measured after 4 days incubation by Celltiter Glo assay
conditionSet: NCI-N87, 96 h
Recall that pIC50 is obtained by taking minus log10 of the concentration measured in molar.

Cc1cc(NC(=O)c2ccc(NS(=O)(=O)CCO)cc2C2=CCC3(CC2)CC3)nc(N2CCC(F)(F)CC2)c1    5.06

Continue with the compound presented below.
query: I have this compound here, `Cc1cc(NC(=O)c2ccc(NS(=O)(=O)CCO)cc2N2CCC3(CC2)CC3)nc(N2CCC(F)(F)CC2)n1` , and I need its recorded pIC50.
result: 5.13

###

experiment: Oral bioavailability in Beagle dog at 2 mg/kg
Format: ADME, organism-based, Canis lupus familiaris
conditionSet: in vivo
quantityName: bioavailability (%)
Response body: numeric value in %, unit text excluded.

query: Item under review: `Cc1cc(NC(=O)c2ccc(NS(=O)(=O)CCO)cc2C2=CCC3(CC2)CC3)nc(N2CCC(F)(F)CC2)c1` . Reported bioavailability?
result: 76.9

###

experiment: Oral bioavailability in Cynomolgus monkey at 2 mg/kg
Format: ADME, organism-based, Macaca fascicularis
conditionSet: in vivo
quantityName: bioavailability (%)
Just the number please, in %, no unit attached.

query: # lookup: bioavailability of `Cc1cc(NC(=O)c2ccc(NS(=O)(=O)CCO)cc2C2=CCC3(CC2)CC3)nc(N2CCC(F)(F)CC2)c1`
result: 40.2

###

experiment: Cmax in Balb/c mouse at 10 mg/kg, po
Type: ADME, organism-based
conditionSet: in vivo
quantityName: Cmax (ng/mL)
Report the value in ng/mL with no unit label.

query: Which measured Cmax value corresponds to `Cc1cc(NC(=O)c2ccc(NS(=O)(=O)CCO)cc2C2=CCC3(CC2)CC3)nc(N2CCC(F)(F)CC2)c1` ?
result: 2160

###

We begin with a simple list: items and their reported Cmax.
experiment: Cmax in Balb/c mouse at 30 mg/kg, po
Format: ADME, organism-based
conditionSet: in vivo
Your answer should be a plain number; it is taken to be in ng/mL.

Cc1cc(NC(=O)c2ccc(NS(=O)(=O)CCO)cc2N2CCC3(CC2)CC3)nc(N2CCC(F)(F)CC2)n1    7040

Note: attention shifts to another entry.
query: Which Cmax value is on record for `Cc1cc(NC(=O)c2ccc(NS(=O)(=O)CCO)cc2C2=CCC3(CC2)CC3)nc(N2CCC(F)(F)CC2)c1` ?
result: 4040

###

experiment: Half life in Sprague-Dawley rat at 2 mg/kg, po and 1 mg/kg, iv
Assay type: ADME, organism-based
conditionSet: in vivo
// assign class 1 if half-life falls strictly below 4 h, else class 0 (ties count as class 0)

Example entries begin here.
O=C(Nc1cncc(N2CCC(F)(F)CC2)n1)c1ccc(NS(=O)(=O)CCO)cc1C1=CCC2(CC1)CC2    class 1
O=C(Nc1ccc(F)c(N2CCC(F)(F)CC2)n1)c1ccc(NS(=O)(=O)CCO)cc1C1=CCC2(CC1)CC2    class 0

query: Could you please tell me whether half-life recorded for `Cc1cc(NC(=O)c2ccc(NS(=O)(=O)CCO)cc2C2=CCC3(CC2)CC3)nc(N2CCC(F)(F)CC2)c1` is less than 4 h?
result: class 1

query: Is 4 h strictly greater than the compound's reported half-life? compound: `Cc1cc(NC(=O)c2ccc(NS(=O)(=O)CCO)cc2C2=CCC3(CC2)CC3)nc(N2CCC(F)(F)CC2)n1`
result: class 0

query: half-life under 4 h? Item: `O=C(Nc1cccc(N2CCC(F)(F)CC2)n1)c1ccc(NS(=O)(=O)CCO)cc1C1=CCC2(CC1)CC2`
result: class 1

###

experiment: Half life in rat liver microsomes
Assay type: ADME, Microsome
quantityName: half-life (h)
Quick note: give the figure in h, leave out the unit.

query: // query half-life value for entry `Cc1cc(NC(=O)c2ccc(NS(=O)(=O)CCO)cc2C2=CCC3(CC2)CC3)nc(N2CCC(F)(F)CC2)c1`
result: 1.03

###

experiment: AUC in Balb/c mouse at 10 mg/kg, po
Assay type: ADME, organism-based
conditionSet: in vivo
quantityName: AUC (ng·h/mL)
Record the value in ng·h/mL, omitting the unit from your answer.

query: Any idea what AUC was measured for `Cc1cc(NC(=O)c2ccc(NS(=O)(=O)CCO)cc2C2=CCC3(CC2)CC3)nc(N2CCC(F)(F)CC2)c1` ?
result: 27700

###

targetOrSystem: UniProt:Q12809
Sequence (Q12809 whole entry): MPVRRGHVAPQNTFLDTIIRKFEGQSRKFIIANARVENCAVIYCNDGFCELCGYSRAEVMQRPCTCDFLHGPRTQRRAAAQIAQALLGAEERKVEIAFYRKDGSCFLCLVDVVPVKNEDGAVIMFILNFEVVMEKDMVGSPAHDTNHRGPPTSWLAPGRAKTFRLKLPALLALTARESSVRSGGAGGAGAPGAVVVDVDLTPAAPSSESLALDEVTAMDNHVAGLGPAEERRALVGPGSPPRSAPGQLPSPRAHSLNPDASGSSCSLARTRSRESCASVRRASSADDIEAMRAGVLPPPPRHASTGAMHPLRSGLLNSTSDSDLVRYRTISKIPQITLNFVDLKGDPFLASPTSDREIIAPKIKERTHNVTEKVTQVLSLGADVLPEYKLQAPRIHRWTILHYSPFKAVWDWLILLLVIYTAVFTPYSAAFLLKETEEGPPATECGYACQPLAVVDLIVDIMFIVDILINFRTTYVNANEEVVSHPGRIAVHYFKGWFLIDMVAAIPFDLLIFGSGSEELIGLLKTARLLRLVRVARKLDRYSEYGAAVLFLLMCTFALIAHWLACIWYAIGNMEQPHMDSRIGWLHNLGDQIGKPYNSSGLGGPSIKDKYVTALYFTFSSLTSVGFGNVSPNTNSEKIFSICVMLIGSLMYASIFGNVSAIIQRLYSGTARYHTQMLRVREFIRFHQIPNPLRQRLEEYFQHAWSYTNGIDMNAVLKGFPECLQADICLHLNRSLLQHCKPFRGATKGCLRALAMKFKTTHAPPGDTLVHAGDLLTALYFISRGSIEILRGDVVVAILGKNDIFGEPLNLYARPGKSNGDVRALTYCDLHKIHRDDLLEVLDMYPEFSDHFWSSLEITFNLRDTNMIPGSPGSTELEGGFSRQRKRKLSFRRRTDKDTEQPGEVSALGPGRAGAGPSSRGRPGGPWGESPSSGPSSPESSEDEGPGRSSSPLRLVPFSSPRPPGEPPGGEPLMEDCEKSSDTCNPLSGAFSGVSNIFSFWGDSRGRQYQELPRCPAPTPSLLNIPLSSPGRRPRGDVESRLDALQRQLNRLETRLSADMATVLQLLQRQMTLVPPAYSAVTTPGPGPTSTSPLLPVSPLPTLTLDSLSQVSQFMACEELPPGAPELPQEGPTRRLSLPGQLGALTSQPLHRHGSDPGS
quantityName: IC50

query: Give the measured IC50 of `Cc1cc(NC(=O)c2ccc(NS(=O)(=O)CCO)cc2C2=CCC3(CC2)CC3)nc(N2CCC(F)(F)CC2)c1` .
result: > 30 µM

###

targetOrSystem: Cytochrome P450 3A4 (Homo sapiens)
Sequence (P08684 whole entry): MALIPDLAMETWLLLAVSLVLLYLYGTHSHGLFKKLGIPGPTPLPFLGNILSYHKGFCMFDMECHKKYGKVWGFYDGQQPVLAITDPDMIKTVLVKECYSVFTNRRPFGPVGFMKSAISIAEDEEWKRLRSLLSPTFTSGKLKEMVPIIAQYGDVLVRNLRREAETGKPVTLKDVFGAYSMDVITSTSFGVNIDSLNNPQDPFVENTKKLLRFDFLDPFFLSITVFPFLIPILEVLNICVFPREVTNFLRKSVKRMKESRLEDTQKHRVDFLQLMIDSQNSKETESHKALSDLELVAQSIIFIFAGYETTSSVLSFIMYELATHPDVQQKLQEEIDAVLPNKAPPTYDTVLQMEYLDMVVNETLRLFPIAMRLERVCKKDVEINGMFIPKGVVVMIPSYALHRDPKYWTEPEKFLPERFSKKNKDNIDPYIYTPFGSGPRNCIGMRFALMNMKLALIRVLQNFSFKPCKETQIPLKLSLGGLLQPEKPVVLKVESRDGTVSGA
experiment: Inhibition of CYP3A4 (unknown origin) assessed as reduction in testosterone metabolism
Type: ADME
quantityName: IC50 (µM)
Dear colleague, please return just the value in µM, with no unit written.

query: Bench note: what IC50 did `Cc1cc(NC(=O)c2ccc(NS(=O)(=O)CCO)cc2C2=CCC3(CC2)CC3)nc(N2CCC(F)(F)CC2)c1` show?
result: 23

###

experiment: Cmax in Cynomolgus monkey at 2 mg/kg, po and 1 mg/kg, iv
Assay type: ADME, organism-based, Macaca fascicularis
conditionSet: in vivo
quantityName: Cmax (ng/mL)
API: value field is a number in ng/mL; no unit string.

query: Name the reported Cmax value associated with the compound `Cc1cc(NC(=O)c2ccc(NS(=O)(=O)CCO)cc2C2=CCC3(CC2)CC3)nc(N2CCC(F)(F)CC2)c1`
result: 478

###

experiment: cells
conditionSet: Homo sapiens, OVCAR-3, 96 h
Description: Antiproliferative activity against KIF18A siRNA sensitive human OVCAR-3 cells assessed as decrease in nuclei number measured after 4 days incubation by Hoechst 33342 DNA dye based nuclear count assay (NCA)
Recorded pEC50 for the following compounds
Please keep in mind that pEC50 is minus log10 of the molar concentration; only the number is needed.

Examples from the recorded data:
Cc1cc(NC(=O)c2ccc(NS(=O)(=O)CCO)cc2C2=CCC3(CC2)CC3)cc(N2CCC(F)(F)CC2)c1    6.51
O=C(Nc1cncc(N2CCC(F)(F)CC2)n1)c1ccc(NS(=O)(=O)CCO)cc1C1=CCC2(CC1)CC2    7.78

Consider the record given below.
query: Sample `O=C(Nc1ccnc(N2CCC(F)(F)CC2)c1F)c1ccc(NS(=O)(=O)CCO)cc1C1=CCC2(CC1)CC2` — what was its pEC50?
result: 6.69

###

experiment: cells
conditionSet: Homo sapiens, OVCAR-3, 96 h
Entries and their pEC50 values follow.
// pEC50 here means minus log10 of the molar concentration (mol/L)

# example entries with known answers
Cc1cc(NC(=O)c2ccc(NS(=O)(=O)CCO)cc2C2=CCC3(CC2)CC3)nc(N2CC(F)(F)C2)n1    6.86
Cc1cc(NC(=O)c2ccc(NS(=O)(=O)CCO)cc2N2C3CCCC2CC3)nc(N2CCC(F)(F)CC2)n1    6.18

Consider the record given below.
query: Using the record for Cc1cc(NC(=O)c2ccc(NS(=O)(=O)CCO)cc2N2CCC3(CC2)CC3)nc(N2CCC(F)(F)CC2)n1 [AMG-650] , report its pEC50.
result: 7.14

###

experiment: cells
conditionSet: Homo sapiens, OVCAR-3, 96 h
pEC50: −log10 of the molar value.
quantityName: pEC50

Cc1cc(NC(=O)c2ccc(NS(=O)(=O)CCO)cc2NC2CCCCC2)nc(N2CCC(F)(F)CC2)n1    < 5.00
Cc1cc(NC(=O)c2ccc(NS(=O)(=O)CCO)cc2-c2cnn(C)c2)nc(N2CCC(F)(F)CC2)n1    < 5.00

query: I'd like to know its pEC50. The compound in question is `Cc1cc(NC(=O)c2ccc(NS(=O)(=O)CCO)cc2C2=CCN(C)CC2)nc(N2CCC(F)(F)CC2)n1`
result: < 5.00
